- assay: recombinant barcode read abundance after kanamycin selection (control-corrected) (log10(CPM+1)); higher = more efficient recombination; sequences stand for … in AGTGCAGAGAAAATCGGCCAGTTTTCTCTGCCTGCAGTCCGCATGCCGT…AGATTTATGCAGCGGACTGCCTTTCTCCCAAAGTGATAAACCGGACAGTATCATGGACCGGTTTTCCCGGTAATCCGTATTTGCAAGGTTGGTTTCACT; site = the 11-nt target;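 further: IS621 recombinase and bridge RNA in Escherichia coli cells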
Tick rule met if recombinant barcode read abundance (log10) is 0.1 or greater. Tick rule not met if recombinant barcode read abundance (log10) is less than 0.1.

Please review the entries below; each comes with its answer.
GCGGACGCTTGGGTTCTAACCTGTTGCCT (site CCGGACCCTAG) | rule not met
GGAAAAGCTTGGGTTCTAACCTGTTGCTT (site GGAAAAGCTAA) | rule met
TGGCTAGCTTGGGTTCTAACCTGTTGCAC (site CATTCGCCTAC) | rule not met

Given CTGATGTCTTGGGTTCTAACCTGTTGCCA (site CTGCTGTCTTG) , state whether its recombinant barcode read abundance (log10) is at least 0.1.
rule met

Next up: GAAACAGCTTGGGTTCTAACCTGTTGCCT (site GAAACAGCTAG)
rule met

====

- assay: recombinant barcode read abundance after kanamycin selection (control-corrected) (log10(CPM+1)); higher = more efficient recombination; sequences stand for … in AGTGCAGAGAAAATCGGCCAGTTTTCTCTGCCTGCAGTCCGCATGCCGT…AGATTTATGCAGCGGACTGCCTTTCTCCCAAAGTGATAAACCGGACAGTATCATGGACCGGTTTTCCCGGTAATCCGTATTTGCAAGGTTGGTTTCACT; site = the 11-nt target
measurementLabel: recombinant barcode read abundance (log10)

Check out these entries, answers already filled in.
AAGGGCCCTTGGGTTCTAACCTGTTGCCT (site GAGGGCCCTAG) | 0.122
GAGCGCTCTTGGGTTCTAACCTGTTGCTT (site GAGCGCTCTGA) | 0.088
AGTTCGACTTGGGTTCTAACCTGTTGCCT (site ATTTCGACTAG) | 0.234
GGAGACGCTTGGGTTCTAACCTGTTGCCT (site GGAGACGCTAG) | 1.32
GAGTGGACTTGGGTTCTAACCTGTTGCGT (site GAGTGGACTAC) | 2.7
GCATCGTCTTGGGTTCTAACCTGTTGCCT (site GCATCGTCTAG) | 0.649
CCGCGGCCTTGGGTTCTAACCTGTTGCCT (site TCGCGGCCTAG) | 0.0221
GGATCGTCTTGGGTTCTAACCTGTTGCCT (site GGATCGTCTAG) | 1.44

Here are 2 sequences. What values of recombinant barcode read abundance (log10) were reported for them?
1. TTGGACACTTGGGTTCTAACCTGTTGCCT (site TTGGTCACTAG)
2. GGTCCTCCTTGGGTTCTAACCTGTTGCGA (site TCCTAGTCTCT)

1: 0.227; 2: 0.229

====

- assay: recombinant barcode read abundance after kanamycin selection (control-corrected) (log10(CPM+1)); higher = more efficient recombination; sequences stand for … in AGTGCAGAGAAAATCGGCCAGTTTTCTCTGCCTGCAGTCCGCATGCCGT…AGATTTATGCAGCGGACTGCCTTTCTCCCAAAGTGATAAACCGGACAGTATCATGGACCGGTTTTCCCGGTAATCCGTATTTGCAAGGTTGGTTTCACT; site = the 11-nt target
measurementLabel: recombinant barcode read abundance (log10)
Give bare numbers.

CATGCGACTTGGGTTCTAACCTGTTGCGT (site AGCATCCCTCA) | 0.234
CTTGGACCTTGGGTTCTAACCTGTTGCAG (site CTTCGACCTAT) | 0.00985
TAGTGTACTTGGGTTCTAACCTGTTGCCT (site TAGTGTGCTAG) | 0.221
TAGCATACTTGGGTTCTAACCTGTTGCCC (site TAGCATACTCG) | 0.266

Quick one: give me recombinant barcode read abundance (log10) for each item below, same order please.
1. TCACATTCTTGGGTTCTAACCTGTTGCCT (site TCATATTCTAG)
2. ACGCAGTCTTGGGTTCTAACCTGTTGCCT (site ACGCAGTCTAG)
3. TAGAACTCTTGGGTTCTAACCTGTTGCCC (site TAGAACTCTGG)
4. ATCCAGCCTTGGGTTCTAACCTGTTGCCT (site ATCCAACCTAG)
5. CGCCGTACTTGGGTTCTAACCTGTTGCCT (site CGACGTACTAG)
6. CGTCCGACTTGGGTTCTAACCTGTTGCAT (site CGTCCGACTAT)

[0.155, 0.798, 0.427, 1.16, 0.264, 0.113]
